Every entry's value here was drawn from ChEMBL document CHEMBL1141575.

experiment: Survival of human 2780.9S cells at 1 uM under deem light after 96 hrs by MTT assay relative to control; assay type: functional; settings: read-out: Survival
METRIC NAME: viability at 1 µM (%)
The response must be a number in % with no trailing unit.

Here is how some compounds turned out for viability at 1 µM.
Which value of viability at 1 µM has been reported for C=Cc1c(C)c2cc3nc(c(CC(=O)OC)c4[nH]c(cc5nc(cc1[nH]2)C(C)=C5CC)c(C)c4C(=O)NCCO)C(CCC(=O)OC)C3C (centres undefined) [PHEOPHORBIDE A ETHANOLAMIDE] in the records?
117

Field entry: C=Cc1c(C)c2cc3nc(c4c5[nH]c(cc6nc(cc1[nH]2)C(C)=C6CC)c(C)c5C(=O)[C@@H]4C(=O)OC)[C@@H](CCC(=O)OC)[C@@H]3C [METHYL PHEOPHORBIDE A]
94.9

Field entry: CC1=C(CCC(=O)O)c2cc3nc(cc4[nH]c(cc5[nH]c(cc1n2)c(C)c5C(C)O)c(C)c4C(C)O)C(C)=C3CCC(=O)O (centres undefined) [HAEMAPORPHYRIN]
82.5

Turning now to a further record.
Which value of viability at 1 µM has been reported for CCCOC(C)C1=C(C)c2cc3[nH]c(cc4nc(cc5[nH]c(cc1n2)c(C)c5CCC(=O)NCCO)C(CCC(=O)NCCO)=C4C)c(C)c3C(C)OCCC (centres undefined) [HEMATOPORPHYRIN PROPYLETHER ETHANOLAMIDE] in the records?
100

---

assay: Photohemolysis in human RBC at 190 nM under exposure to light for 10 mins; type: ADME, cell-based, Erythrocyte; conditions: human red blood cells, read-out: Activity
METRIC NAME: hemolysis at 10 min, 0.19 µM (%)
The response must be a number in % with no trailing unit.

Which value of hemolysis at 10 min, 0.19 µM has been reported for C=Cc1c(C)c2cc3nc(c(CC(=O)OC)c4[nH]c(cc5nc(cc1[nH]2)C(C)=C5CC)c(C)c4C(=O)NCCO)C(CCC(=O)OC)C3C (stereo unspecified) [PHEOPHORBIDE A ETHANOLAMIDE] in the records?
100

---

system: Raji; experiment: Survival of human Raji cells at 0.1 uM under deem light after 96 hrs by MTT assay relative to control; assay type: functional; details: read-out: Survival
Each record here notes measured viability at 0.1 µM.
Lab note: write values as number then unit, every time.

Which value of viability at 0.1 µM has been reported for COc1cccc2c1C(=O)c1c(O)c3c(c(O)c1C2=O)C[C@@](O)(C(=O)CO)C[C@@H]3O[C@H]1C[C@H](N)[C@H](O)[C@H](C)O1 [DOXORUBICIN] in the records?
106%

Next:
Which value of viability at 0.1 µM has been reported for CC1=C(CCC(=O)O)c2cc3nc(cc4[nH]c(cc5[nH]c(cc1n2)c(C)c5C(C)O)c(C)c4C(C)O)C(C)=C3CCC(=O)O (stereo not given) [HAEMAPORPHYRIN] in the records?
92.1%

Field entry: C=Cc1c(C)c2cc3nc(c4c5[nH]c(cc6nc(cc1[nH]2)C(C)=C6CC)c(C)c5C(=O)[C@@H]4C(=O)OC)[C@@H](CCC(=O)OC)[C@@H]3C [METHYL PHEOPHORBIDE A]
92.9%

Field entry: CCCOC(C)C1=C(C)c2cc3[nH]c(cc4nc(cc5[nH]c(cc1n2)c(C)c5CCC(=O)NCCO)C(CCC(=O)NCCO)=C4C)c(C)c3C(C)OCCC (stereo not given) [HEMATOPORPHYRIN PROPYLETHER ETHANOLAMIDE]
96.1%

Field entry: C=Cc1c(C)c2cc3nc(c(CC(=O)OC)c4[nH]c(cc5nc(cc1[nH]2)C(C)=C5CC)c(C)c4C(=O)NCCO)C(CCC(=O)OC)C3C (stereo not given) [PHEOPHORBIDE A ETHANOLAMIDE]
118%
